I'd appreciate it if you could supply Enzyme Activity Endpoint Assay: Fc values for the items below.
# measured.target: pooled human IgG (human IgG1,2,3 and 4)
// units = ng/µL; emit number, no label

Need Enzyme Activity Endpoint Assay: Fc, item PRT-88 (protein) MANQEIRYSEVTPYHVTSVWTKGVTPPAKFTQGEDVFHAPYVANQGWYDITKTFNGKDDLLCGAATAGNMLHWWFDQNKEKIEAYLKKHPEKQKIMFGDQELLDVRKVINTKGDQTNSELFNYFRDKAFPGLSARRLGVMPDLVLDMFINGYYLNVYKTQTTDVNRTYQEKDRRGGIFDAVFTRGDQSKLLTSRHDFKEKNLKEISDLIKKELTEGKALGLSHTYANVRINHVINLWGADFDSNGNLKAIYVTDSDSNASIGMKKYFVGVNSAGKVAISAKEIKEDNIGAQVLGLFTLSTGQDIWNQTN 110

Need Enzyme Activity Endpoint Assay: Fc, item PRT-94 (protein) MANQEIRYSEETPYHVTSVWTKGVTPPAKFTQGEDVFHAPYVANQGWYDITKTFNGKDDLLCGAATAGNMLHWWFDQNKEKIEAYLKKHPDKQKIMFGDQELLDVRKVINTKGDQTNSELFNYFRDKAFPGLSARRIGVMPDLVLDMFINGYYLNVYKTQTTDVNRTYQEKDRRGGIFDAVFTRGDQSKLLTSRHDFKEKTLKEISDLIKKELTEGKALGLSHTYANVRINHVINLWGADFDSNGNLKAIYVTDSDSNASIGMKKYFVGVNSAGKVAISAKEIKEDNIGAQVLGLFTLSTGQDSWNQTN 120

Need Enzyme Activity Endpoint Assay: Fc, item PRT-96 (protein) MANQEIRYSEVTPYTVTSVWTKGVTPPADFTQGEDVFHAPYVANQGWYDITKTFNGKDDLLCGAATAGNMLHWWFDQNKEKIEAYLKKHPDKQKIMFGDQELLDVRKAINTKGDQTNSELFNYFRDKAFPGLSARRIGVMPDLVLDMFINGYYLNVYKTQTTDVNRTYQEKDRRGGIFDAVFTRGDQSKLLTSRHDFKEKNLKEISDLIKKELTEGKALGLSHTYANVRINHVINLWGADFDSEGNLKAIYVTDSDSNASIGMKKYFVGVNSAGKVAISAKEIKEDNIGAQVLGLFTLSTGQDSWNQTN 156

Need Enzyme Activity Endpoint Assay: Fc, item PRT-86 (protein) MANQEIRYSEEDPKHVTSVWTKGVTPPTDFTQGEDVLHAPYIANQGWYDITKTFNGKDDLLCGAATAGNMLHWWFDQNKEEIENYLKKHPEKQKIMFGDQELLDVRKVINTKDSQTNSKLFNYFREKAFPNLSARRLGVMPDLVLDMFINGYYLNVTKTQTTDVNRTYQTKDKRGGIFDAVFTRGDQTKLLTNRHDFKEKTLNEISDLIKQELQEGKALGLSHTYANVRINHVINLWGADFDSNGNLEAIYVTDSDANASIGMKKYFVGKNSAGKVAISAKEIKDDNIGAQVLGLFTLSTGQDIWNQTN 61

Need Enzyme Activity Endpoint Assay: Fc, item PRT-283 (protein) MVTSVWTKGVTPPAKFTQGEDVFHAPYDANQGWYDITKTFNGKDDLLCGAATAGNMLHWWFDQNKEKIEAYLKKHPDKQKIMFGDQELLDVRKVINTKGDQTNSELFNYFRDKAFPNLSARRIGVMPDLVLDMFINGYYLNVYKTQTTDVNRTYQEKDRRGGIFDAVFTRGDQSKLLTSRHDFKEKNLKEISDLIKKELTEGKALGLSHTYANVRISHVINLWGADFDSNGNLKAIYVTDSDSNASIGMKKYFVGVNSAGKVAISAKEIKEDNIGAQVLGLFTLSTGQDSWNQTN 271

Need Enzyme Activity Endpoint Assay: Fc, item PRT-187 (protein) MANQEIRYSEVTPYHVTSVWTKGVTPPADFTYGEDVFHAPYVANQGWYDITKTFNGKDDLLCGAATAGNMLHWWFDQNKEQIEKYLKKHPEKQKIMFGDQELLDVRKVINTKGSQTNSELFNYFRDKAFPGLSARRLGVMPDLVLDMFINGYYLNVYKTQTTDVNRTYQEKDKRGGIFDAVFTRGDQSKLLTSRHDFKEKNLKEISDLIKQELTEGKALGLSHTYANVRINHVINLWGADFDSNGNLKAIYVTDSDSNASIGMKKYFVGVNSAGKVAISAKEIKEDNIGAQVLGLFTLSTGQDIWNQTN 307

Need Enzyme Activity Endpoint Assay: Fc, item PRT-496 (protein) MVTSVWTKGVTPPTDFIKGEDVFHAPYKAGQGWYDITKTFNGKDDLLCGAATAGNMLHWWFDQNKEYIEAYLKKHPEKQKIMFGDQELLDVRKAINTKGSQKNSELFNYFRDKAFPNLSARRLGVMPDLVLDMFINGYYLNVTKTQTTDVNRTYQEKDKRGGIFDAVFTRGDQSKLLTSRHDLKNKGLKEISDLIKQELTEGKALGLSHTYANVRINHVINLWGADFDSDGNLKAIYVTDSDSNASIGMKKYFVGVNSAGKVAISAKEIKEDNIGAQVLGLFTLSTGQDIWNQTNLEHHHHHH 192

Need Enzyme Activity Endpoint Assay: Fc, item PRT-372 (protein) MSQTEDSESLQRLRDIEDFQAEKKKQNVVYTKWLDGVDVKDHDFRKIVDGNSAYYATPLLNGRGFYDINKDFNRDNDKCAAAVAANMFHYWLDRNRDNVDRFLRQNPEKHGIIELPDGQLKLSDFLNTYESDDGYRDKSKLFDFISENFNGPVWTDKLLDNYINGYAYNSKYGRTIEDSTKNTSKINFFKEVFNEKILTNNHSIRNQNEFSVLLIEALYTGKAIGLSYGPAGLRHGLGHIISVWGADLDADGNVVAIYVTDSDDKKLTIGDERVGLKRYKISTDDEGRLRLTAYEETHNTGGQIRGLWTLDTGKQAWADYFDKTEQTGTDQAEQ 218

The reported numbers originate from patent US20250027068.
